Biological target: CDK1/cyclin B
Assay: CDK1/cyclin B kinase assay
Conditions: 15 μM ATP, 30° C., histone H1 substrate
propertyLabel: IC50 (nM)

INSERT INTO measurements (compound, unitspec, measuredresult) VALUES
  ('CC[C@H](CO)Nc1nc(NCc2ccc(-c3ccccn3)cc2)n2ncc(C(C)C)c2n1 [Compound 2]', 'nM', 23),
  ('CC(C)c1cnn2c(NCc3ccc(-c4ccsc4)cc3)nc(N[C@H](CO)[C@@H](C)O)nc12 (stereo in doubt)', 'nM', 59);

[I] CC(C)c1cnn2c(NCc3ccc(-c4ccccn4)cc3)nc(N[C@@H](CO)[C@H](C)O)nc12 (stereo in doubt) [Compound 14]
[II] CC(C)c1cnn2c(NCc3ccc(-c4ccccn4)cc3)nc(NC[C@H](O)CO)nc12
// which entry reports the smaller IC50, I or II ? Answer with the label corresponding to your selection. II
(II: 19 nM, I: 42 nM)

====

Target: CK1δ/ε
Test: CK1δ/ε kinase assay
Conditions: 15 μM ATP, 30° C., CK1-specific peptide substrate
pIC50: −log10 of the molar value.
propertyLabel: pIC50

INSERT INTO measurements (compound, systemname, measuredresult) VALUES
  ('CC[C@H](CO)Nc1nc(NCc2ccc(-c3ccccn3)cc2)n2ncc(C(C)C)c2n1 [Compound 3]', 'CK1δ/ε', 6.89),
  ('CC[C@H](CO)Nc1nc(NCc2ccc(-c3ccccc3)cc2)n2ncc(C(C)C)c2n1 [Compound 1]', 'CK1δ/ε', 6.68),
  ('CC(C)c1cnn2c(NCc3ccc(-c4ccsc4)cc3)nc(N[C@H](CO)[C@@H](C)O)nc12 (stereo in doubt) [Compound 16]', 'CK1δ/ε', 6.72),
  ('CC(C)c1cnn2c(NCc3ccc(-c4ccccn4)cc3)nc(N[C@@H](CO)[C@H](C)O)nc12 [Compound 15]', 'CK1δ/ε', 6.92);

[I] CC[C@H](CO)Nc1nc(NCc2ccc(-c3ccccn3)cc2)n2ncc(C(C)C)c2n1 [Compound 2]
[II] CC(C)c1cnn2c(NCc3ccc(-c4ccccn4)cc3)nc(NC(CO)CO)nc12 [Compound 17]
[III] CC(C)c1cnn2c(NCc3ccc(-c4ccccn4)cc3)nc(N3CCN(CCO)CC3)nc12 [Compound 30]
Arrange the 3 compounds from largest to smallest pIC50. List the labels according to the requested ordering. II, I, III
(II: 7.04, I: 6.68, III: 6.25)

====

Molecular target: CDK5/p25 (Homo sapiens, UniProt Q00535)
Sequence (Q00535 whole entry, species assumed): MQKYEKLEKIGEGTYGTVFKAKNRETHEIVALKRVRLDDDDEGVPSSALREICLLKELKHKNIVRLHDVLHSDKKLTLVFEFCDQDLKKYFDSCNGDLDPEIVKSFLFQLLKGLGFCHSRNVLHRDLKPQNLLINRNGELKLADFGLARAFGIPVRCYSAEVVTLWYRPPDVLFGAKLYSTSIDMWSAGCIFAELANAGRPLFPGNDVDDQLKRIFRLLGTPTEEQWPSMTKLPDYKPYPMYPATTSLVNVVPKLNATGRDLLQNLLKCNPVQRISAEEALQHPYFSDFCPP
Sequence (Q15078 99-307 partner limits assumed, species assumed): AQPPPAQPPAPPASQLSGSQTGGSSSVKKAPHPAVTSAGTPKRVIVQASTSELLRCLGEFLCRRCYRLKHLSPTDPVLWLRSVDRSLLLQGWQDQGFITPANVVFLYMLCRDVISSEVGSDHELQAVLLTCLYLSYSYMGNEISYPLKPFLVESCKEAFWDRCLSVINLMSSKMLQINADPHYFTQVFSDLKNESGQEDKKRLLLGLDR
Assay: CDK5/p25 kinase assay
Settings: 15 μM ATP, 30° C., histone H1 substrate
propertyLabel: IC50 (µM)

INSERT INTO assay_data (compound, propertylabel, unitspec, measuredresult) VALUES
  ('CC[C@H](CO)Nc1nc(NCc2ccc(-c3ccccn3)cc2)n2ncc(C(C)C)c2n1 [Compound 2]', 'IC50', 'µM', 0.04);

[A] CC(C)c1cnn2c(NCc3ccc(-c4ccsc4)cc3)nc(N[C@H](CO)[C@@H](C)O)nc12 (stereo in doubt)
[B] CCc1cnn2c(NCc3ccc(-c4ccccn4)cc3)nc(NC[C@H](O)CO)nc12
[C] CC[C@@H](CO)Nc1nc(NCc2ccc(-c3ccccn3)cc2)n2ncc(C(C)C)c2n1
Would you mind ranking these compounds by ascending IC50? Your reply should list the labels following the order given in the request. B, C, A
(B: 0.01 µM, C: 0.031 µM, A: 0.05 µM)

====

Biological target: GSK-3α/β
Assay: GSK-3α/β kinase assay
Conditions: 15 μM ATP, 30° C., buffer A, GS-1 substrate
pIC50: −log10 of the molar value.
propertyLabel: pIC50

INSERT INTO assay_data (compound, measuredresult) VALUES
  ('CC(C)c1cnn2c(NCc3ccc(-c4ccccn4)cc3)nc(NC(CO)CO)nc12 [Compound 17]', 5.36);

[1] CC[C@@H](CO)Nc1nc(NCc2ccc(-c3ccccn3)cc2)n2ncc(C(C)C)c2n1
[2] CC(C)c1cnn2c(NCc3ccc(-c4ccccc4)nc3)nc(N[C@@H](CO)[C@H](C)O)nc12
Form field 'greater pIC50' accepts 1 or 2 ; which applies? Answer = label. 2
(2: 5.92, 1: 5.46)

====

Biological target: CDK5/p25 (Homo sapiens)
Assay: CDK5/p25 kinase assay
Settings: 15 μM ATP, 30° C., histone H1 substrate
Description: Buffer C: 60 mM β-glycerophosphate, 15 mM p-nitrophenyl phosphate, 25 mM Mops (pH 7.2), 5 mM EGTA, 15 mM MgCl2, 1 mM DTT, 1 mM sodium vanadate, 1 mM phenyl phosphate, 10 μg leupeptin/ml, 10 μg aprotinin/ml and 100 μM benzamidine. Controls were performed with appropriate dilutions of dimethyl sulfoxide. ATP (3000 Ci/mmol; 10 mCi/ml) in a final volume of 30 μl. […]
propertyLabel: IC50 (µM)

[a] CC(C)c1cnn2c(NCc3ccc(-c4ccccn4)cc3)nc(N[C@H](CO)[C@@H](C)O)nc12 [Compound 13]
[b] CC[C@H](CO)Nc1nc(NCc2ccc(-c3ccccc3)cc2)n2ncc(C(C)C)c2n1 [Compound 1]
[c] CC(C)c1cnn2c(NCc3ccc(-c4ccccn4)cc3)nc(N3CCN(CCO)CC3)nc12 [Compound 30]
[d] CCc1cnn2c(NCc3ccc(-c4ccccn4)cc3)nc(N[C@@H](CC)CO)nc12 [Compound 35]
Rank the listed compounds by IC50, largest first. API: response body holds the labels in the requested order. c, b, d, a

====

System: SH-SY5Y human neuroblastoma cells
Experiment: SH-SY5Y cell viability (MTS reduction)
Format: cell-based
Conditions: Homo sapiens; SH-SY5Y cell line, cell viability by MTS
propertyLabel: IC50 (nM)

Worked set:
INSERT INTO measurements (molecule, propertylabel, measuredresult) VALUES
  ('CCc1cnn2c(NCc3ccc(-c4ccccn4)cc3)nc(N[C@H](CC)CO)nc12', 'IC50', 26),
  ('CC[C@H](CO)Nc1nc(NCc2ccc(-c3ccccn3)cc2)n2ncc(C(C)C)c2n1', 'IC50', 44),
  ('CCc1cnn2c(NCc3ccc(-c4ccccn4)cc3)nc(N[C@@H](CC)CO)nc12', 'IC50', 50),
  ('CC[C@H](CO)Nc1nc(NCc2ccccc2)n2ncc(C(C)C)c2n1 [N-&-N1, reference compound]', 'IC50', 2600);

[A] CC(C)c1cnn2c(NCc3ccc(-c4ccccn4)cc3)nc(N3CCN(CCO)CC3)nc12
[B] CC[C@H](CO)Nc1nc(NCc2ccc(-c3ccccc3)cc2)n2ncc(C(C)C)c2n1
Param pair: A , B . Output: the one whose IC50 is numerically greater. Identify your selection by its label. A
(A: 1400 nM, B: 430 nM)

====

System: Human chronic lymphoid leukemia (B-CLL) lymphocytes
Assay: B-CLL cell apoptosis (annexin V / propidium iodide, flow cytometry)
Assay type: cell-based
Settings: Homo sapiens, B-CLL cells from patients
pIC50: −log10 of the molar value.
propertyLabel: pIC50

INSERT INTO assay_data (molecule, systemname, propertylabel, measuredresult) VALUES
  ('CC[C@H](CO)Nc1nc(NCc2ccccc2)n2ncc(C(C)C)c2n1 [N-&-N1, reference compound]', 'Human chronic lymphoid leukemia (B-CLL) lymphocytes', 'pIC50', 5.85);

[I] CC[C@H](CO)Nc1nc(NCc2ccc(-c3ccccc3)cc2)n2ncc(C(C)C)c2n1 [Compound 1]
[II] CC[C@H](CO)Nc1nc(NCc2ccc(-c3ccccn3)cc2)n2ncc(C(C)C)c2n1 [Compound 2]
Look at I and II . Which one has the lower recorded pIC50 number? Kindly state the label of the option you pick. I

====

Biological target: GSK-3α/β
Assay: GSK-3α/β kinase assay
Settings: 15 μM ATP, 30° C., buffer A, GS-1 substrate
pIC50: −log10 of the molar value.
propertyLabel: pIC50

INSERT INTO measurements (compound, propertylabel, measuredresult) VALUES
  ('CC(C)c1cnn2c(NCc3ccc(-c4ccccn4)cc3)nc(N[C@@H](CO)[C@H](C)O)nc12 (stereo in doubt) [Compound 14]', 'pIC50', 5.60),
  ('CC(C)c1cnn2c(NCc3ccc(-c4ccccn4)cc3)nc(NC[C@H](O)CO)nc12 [Compound 9]', 'pIC50', 5.74),
  ('CC[C@H](CO)Nc1nc(NCc2ccc(-c3ccccn3)cc2)n2ncc(C(C)C)c2n1 [Compound 2]', 'pIC50', 5.40),
  ('CC(C)c1cnn2c(NCc3ccc(-c4ccccn4)cc3)nc(NC(CO)CO)nc12 [Compound 18]', 'pIC50', 5.55);

====

Molecular target: CK1δ/ε
Assay: CK1δ/ε kinase assay
Conditions: 15 μM ATP, 30° C., CK1-specific peptide substrate
Protocol: The blank values were subtracted and the activities calculated as μmoles of phosphate incorporated per 10 minutes of incubation. […] Controls were performed with appropriate dilutions of dimethyl sulfoxide. ATP (3000 Ci/mmol; 10 mCi/ml) in a final volume of 30 μl. […]
pIC50: −log10 of the molar value.
propertyLabel: pIC50

INSERT INTO results (compound, measuredresult) VALUES
  ('CCc1cnn2c(NCc3ccc(-c4ccccn4)cc3)nc(N[C@@H](CC)CO)nc12 [Compound 35]', 6.03),
  ('CC(C)c1cnn2c(NCc3ccc(-c4ccccn4)cc3)nc(N[C@H](CO)C(C)C)nc12 [Compound 28]', 6.39),
  ('CC[C@H](CO)Nc1nc(NCc2ccccc2)n2ncc(C(C)C)c2n1 [N-&-N1, reference compound]', 5.92);

[P] CCc1cnn2c(NCc3ccc(-c4ccccn4)cc3)nc(NC[C@@H](O)CO)nc12 [Compound 31]
[Q] CC(C)c1cnn2c(NCc3ccc(-c4ccccn4)cc3)nc(NC[C@H](O)CO)nc12 [Compound 9]
[R] CC(C)c1cnn2c(NCc3ccc(-c4ccccc4)nc3)nc(N[C@@H](CO)[C@H](C)O)nc12 [Compound 21]
Rank descending by pIC50. Record the ranking as a list of labels in the requested order. Q, R, P
(Q: 7.21, R: 6.96, P: 6.44)
